# EXPERIMENT: Compound induced cellular toxicity in HepG2 cells, ATPlite 1Step
# Type: cell-based
# CONDITIONS_USED: human, three days exposure, 50% reduction of total ATP vs no drug controls
MEASURED_ATTRIBUTE: CC50 at 3 days

                            structure_smiles  obs_value
 0  CC(C)[C@@H]1Cn2nc(C3CC3)c(-c3ccccc3F)c2-c2cc(=O)c(C(=O)O)cn21    > 25 µM
 1  CC(C)(C)[C@@H]1Cn2ncc(-c3ccccc3)c2-c2cc(=O)c(C(=O)O)cn21    < 10 µM
 2  Cc1cccc(C)c1-c1cc2n(n1)C[C@@H](C(C)(C)C)n1cc(C(=O)O)c(=O)cc1-2    > 25 µM
 3  CC(C)(C)[C@@H]1Cn2nc(C3CC3)c(-c3ccccc3O)c2-c2cc(=O)c(C(=O)O)cn21    > 25 µM
 4  COc1ccccc1-c1cc2n(n1)C[C@@H](C(C)(C)C)n1cc(C(=O)O)c(=O)cc1-2    > 25 µM
 5  COc1ccc(O)c(-c2cc3n(n2)C[C@@H](C(C)(C)C)n2cc(C(=O)O)c(=O)cc2-3)c1    > 25 µM
 6  COc1cccc(-c2cnn3c2-c2cc(=O)c(C(=O)O)cn2[C@H](C(C)(C)C)C3)c1    > 25 µM
 7  CC(C)(C)[C@@H]1Cn2nc(-c3cccc(F)c3)c(-c3cccc(F)c3)c2-c2cc(=O)c(-c3ncn[nH]3)cn21    > 25 µM
 8  CC(C)(C)[C@@H]1Cn2nc(-c3ccccc3F)cc2-c2cc(=O)c(C(=O)O)cn21    > 25 µM
 9  COc1ccc(-c2cc3n(n2)C[C@@H](C(C)(C)C)n2cc(C(=O)O)c(=O)cc2-3)cc1    > 25 µM
10  Cc1ccccc1-c1cnn2c1-c1cc(=O)c(C(=O)O)cn1[C@H](C(C)(C)C)C2    > 25 µM
11  CC(C)(C)[C@@H]1Cn2ncc(-c3cccs3)c2-c2cc(=O)c(C(=O)O)cn21    > 25 µM
12  CC(C)(C)[C@@H]1Cn2nc(-c3ccc(F)c4c3OCO4)cc2-c2cc(=O)c(C(=O)O)cn21    > 25 µM
13  CC(C)[C@@H]1Cn2nc(C3CC3)c(-c3cccs3)c2-c2cc(=O)c(C(=O)O)cn21    > 25 µM
14  CC(C)[C@@H]1Cn2nc(-c3ccccc3)c(-c3ccccc3)c2-c2cc(=O)c(-c3ncn[nH]3)cn21    > 25 µM
